tested on: RARb homodimer (NR concentration 270 nM); experiment: PBM binding z-score (relative to random genomic background probes); higher = stronger binding; sequences stand for … in GC…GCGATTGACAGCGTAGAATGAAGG
Some sequences, each annotated with its measured PBM binding z-score.
Would you mind answering with just the numeric figure?

Consider the worked cases shown below.
INSERT INTO results (sequencecode, recordednumber) VALUES
  ('CCTTCTGGGCCAAGGTCATTGATCAGTCAAAGCA', 3.27),
  ('TCTTGTAGATAAAGCAGGTTAAGAAAGCCTGAGT', 0.29),
  ('GGAACCAGGGCATTCGAGTTGATAGCATGGCGAT', 1.54),
  ('CCTAGCAGGCCAATCTGGGTAACTCAAGGCTTGA', -0.251);

input: Requested field: PBM binding z-score. Item: `CGTCCAAGGTCAAGGTCTGTGAAAGAGACTCGAA`
output: 3.88

input: Requested field: PBM binding z-score. Item: `CCGACTGGGGCAAGGCTACCATAACGCACAGCCA`
output: 0.53

input: Requested field: PBM binding z-score. Item: `CGTACTAGGTCATTGACAGGACAGTGAATAGTAA`
output: 2.49

input: Requested field: PBM binding z-score. Item: `CCTGCTAGGTCAATGGTCACCTAAAGCAGCTCGC`
output: 3.18

input: Requested field: PBM binding z-score. Item: `GCTATAAGTTGAAAGGGCAACCGAATGATTCTCG`
output: 2.13

input: Requested field: PBM binding z-score. Item: `AGAACGAGGGCACGCTCAGTTGATAGCAGAGTAG`
output: 1.02

input: Requested field: PBM binding z-score. Item: `TCTCGGAGGACACGAAATGTCAGAGCTCGACATC`
output: 1.04

Hey, just so you know, these numbers are from the supplement of paper PMC6555819.
